# System: Mus musculus
# Protocol: Antagonist activity against haloperidol-induced catalepsy in po dosed mouse
# Type: functional
Listed here are compounds together with their documented ED50.
Value Type: ED50

{"columns": ["Smiles Structure", "System", "Recorded Value"],
 "data": [
  ["CCN1CCN(C(=O)c2ccc3c(c2)-c2nc(N)nc(-c4ccccc4)c2C3=O)CC1", "Mus musculus", "< 1 mg/kg"],
  ["CC(C)N(CCOc1ccc2c(c1)-c1nc(N)nc(-c3ccccc3)c1C2=O)C(C)C", "Mus musculus", "< 1 mg/kg"],
  ["Nc1nc(-c2ccc(F)cc2)c2c(n1)-c1cc(OCCN3CCOCC3)ccc1C2=O", "Mus musculus", "< 1 mg/kg"],
  ["CN(C)CCOc1ccc2c(c1)-c1nc(N)nc(-c3ccccc3)c1C2=O", "Mus musculus", "< 3 mg/kg"],
  ["Nc1nc(-c2ccc(F)cc2)c2c(n1)-c1cc(OCCN3CCCC3)ccc1C2=O", "Mus musculus", "0.8 mg/kg"],
  ["CCN1CCN(c2ccc3c(c2)-c2nc(N)nc(-c4ccccc4)c2C3=O)CC1", "Mus musculus", "< 1 mg/kg"],
  ["Nc1nc(-c2ccccc2)c2c(n1)-c1cc(OCCN3CCCC3)ccc1C2=O", "Mus musculus", "< 1 mg/kg"],
  ["CN1CCN(c2ccc3c(c2)-c2nc(N)nc(-c4ccccc4)c2C3=O)CC1", "Mus musculus", "< 1 mg/kg"],
  ["CN(C)CCN(C)C(=O)c1ccc2c(c1)-c1nc(N)nc(-c3ccccc3)c1C2=O", "Mus musculus", "< 1 mg/kg"],
  ["Nc1nc(-c2ccccc2)c2c(n1)-c1cc(NCCN3CCOCC3)ccc1C2=O", "Mus musculus", "< 1 mg/kg"]
]}
